Parameter: pIC50. Scope: all listed entries.
assay: Inhibition of SCD in human H2009 cells non-expressing CYP4F11 assessed as reduction in cell viability incubated for 96 hrs by cell titer Glo reagent based assay
pIC50: −log10 of the molar value.
readoutType: pIC50

>  <molecularString>
COc1ccc2nc(NC(=O)c3ccc(C(=O)N4CCN(C)CC4)cc3)sc2c1

>  <readoutType>
pIC50

>  <operator>
<

>  <observedValue>
4.30

$$$$
>  <molecularString>
O=C(Nc1nccs1)c1ccc(C(=O)c2ccccc2)cc1

>  <readoutType>
pIC50

>  <operator>
<

>  <observedValue>
4.30

$$$$
>  <molecularString>
COc1ccc(C(=O)Nc2nc3cc(N)ccc3s2)cc1

>  <readoutType>
pIC50

>  <operator>
<

>  <observedValue>
4.30

$$$$
>  <molecularString>
O=C(Nc1nc(-c2ccccc2)cs1)c1ccc(C(=O)c2ccccc2)cc1

>  <readoutType>
pIC50

>  <operator>
=

>  <observedValue>
4.83

$$$$
>  <molecularString>
COc1ccc2nc(NC(=O)c3cccnc3)sc2c1

>  <readoutType>
pIC50

>  <operator>
=

>  <observedValue>
4.43

$$$$
>  <molecularString>
O=C(Nc1nc2ccccc2[nH]1)c1ccc(C(=O)c2ccccc2)cc1

>  <readoutType>
pIC50

>  <operator>
=

>  <observedValue>
5.74

$$$$
>  <molecularString>
O=C(Nc1ncc(-c2ccccc2)s1)c1ccc(C(=O)c2ccccc2)cc1

>  <readoutType>
pIC50

>  <operator>
=

>  <observedValue>
5.30

$$$$
>  <molecularString>
O=C(Nc1nc2ccccc2s1)c1cccnc1

>  <readoutType>
pIC50

>  <operator>
<

>  <observedValue>
4.30

$$$$
